Target: 5-hydroxytryptamine receptor 1A (Homo sapiens) (UniProt P08908)
Assay: Biased agonist activity at Gal4-VP16 transcription factor linked human 5-HT1A receptor expressed in human U2OS cells assessed as stimulation of beta-arrestin recruitment measured after 5 hrs by Tango assay relative to serotonin
Format: cell-based
Details: filed as agonist
Entries and their Emax values follow.
OBSERVED_PROPERTY: Emax (%)

>>> result_value("O=C(c1ccc(F)c(Cl)c1)N1CCC(F)(CNCCCc2ccccn2)CC1")
101
>>> result_value("O=C(c1ccc(F)c(Cl)c1)N1CCC(F)(CNCCOc2cnccn2)CC1")
97
>>> result_value("O=C(c1ccc(F)c(Cl)c1)N1CCC(F)(CNCCCc2ccccc2)CC1")
99
>>> result_value("O=C(c1ccc(Cl)c(Cl)c1)N1CCC(F)(CNCCOc2ccccn2)CC1")
99
>>> result_value("O=C(c1ccc(F)c(Cl)c1)N1CCC(F)(CNCCSc2ccccn2)CC1")
102
>>> result_value("O=C(c1ccc(F)c(Cl)c1)N1CCC(F)(CNCCNc2ccccn2)CC1")
99
>>> result_value("O=C(c1ccc(F)c(Cl)c1)N1CCC(F)(CNCCOc2cccnc2)CC1")
101
>>> result_value("O=C(c1ccc(F)c(Cl)c1)N1CCC(F)(CNCCNc2ccccc2)CC1")
104

----------
Target: Adrenergic receptor alpha-1 (Rattus norvegicus, UniProt P15823+P23944+P43140)
Test: Displacement of [3H]-prazosin from alpha1 adrenergic receptor in rat cortex measured after 30 mins by microbeta2 scintillation counting method
Format: tissue-based
OBSERVED_PROPERTY: pKi

>>> result_value("O=C(c1ccc(F)c(Cl)c1)N1CCC(F)(CNCCNc2ccccc2)CC1")
"< 6"
>>> result_value("O=C(c1ccc(F)c(Cl)c1)N1CCC(F)(CNCCOc2cnccn2)CC1")
"< 6"
>>> result_value("O=C(c1ccc(F)c(Cl)c1)N1CCC(F)(CNCCOc2ncccn2)CC1")
"< 6"
>>> result_value("O=C(c1ccc(F)c(Cl)c1)N1CCC(F)(CNCCOc2ccnnc2)CC1")
"< 6"
>>> result_value("O=C(c1ccc(F)c(Cl)c1)N1CCC(F)(CNCCOc2ccccn2)CC1")
6.78

----------
Biological target: 5-hydroxytryptamine receptor 1A (Homo sapiens)
Sequence (P08908 whole entry): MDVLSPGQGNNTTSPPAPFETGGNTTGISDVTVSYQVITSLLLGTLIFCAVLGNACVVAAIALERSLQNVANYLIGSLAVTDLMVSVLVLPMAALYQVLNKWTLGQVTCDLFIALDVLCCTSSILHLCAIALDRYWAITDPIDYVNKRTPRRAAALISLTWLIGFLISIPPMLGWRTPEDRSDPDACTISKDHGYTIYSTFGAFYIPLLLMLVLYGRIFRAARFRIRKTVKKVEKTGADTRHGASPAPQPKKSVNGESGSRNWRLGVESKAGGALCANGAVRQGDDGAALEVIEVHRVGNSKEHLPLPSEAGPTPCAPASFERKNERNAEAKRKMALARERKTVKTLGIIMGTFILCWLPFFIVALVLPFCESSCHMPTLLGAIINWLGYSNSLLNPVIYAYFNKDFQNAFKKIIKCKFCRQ
Test: Displacement of [3H]8-OH-DPAT from recombinant human 5HT1A receptor stably expressed in CHO-K1 cell membranes measured after 60 mins by microbeta2 scintillation counting method
log10 of Ki overview
OBSERVED_PROPERTY: log10 of Ki (log10 of the value in nM)

>>> result_value("O=C(c1ccc(F)c(Cl)c1)N1CCC(F)(CNCCOc2cncnc2)CC1")
2.32
>>> result_value("O=C(c1ccc(F)c(Cl)c1)N1CCC(F)(CNCCOc2ccncc2)CC1")
2.59
>>> result_value("Cc1cnc(CNCC2(F)CCN(C(=O)c3ccc(F)c(Cl)c3)CC2)nc1")
0.34
>>> result_value("O=C(c1ccc(F)c(Cl)c1)N1CCC(F)(CNCCSc2ccccc2)CC1")
-0.25
>>> result_value("O=C(c1ccc(F)c(Cl)c1)N1CCC(F)(CNCCOc2ccnnc2)CC1")
2.30
>>> result_value("O=C(c1ccc(Cl)c(Cl)c1)N1CCC(F)(CNCCOc2ccccc2)CC1")
-1.83

----------
Molecular target: 5-hydroxytryptamine receptor 1A (Homo sapiens)
Assay: Biased agonist activity at human recombinant 5-HT1A receptor stably expressed in CHO-K1 cells assessed as increase in calcium mobilization measured at 2 sec intervals for 180 secs by Fluo-4AM dye based fluorescence assay relative to serotonin
Type: functional, cell-based
Settings: filed as partial agonist, time 180.0 sec
OBSERVED_PROPERTY: Emax

>>> result_value("O=C(c1ccc(Cl)c(Cl)c1)N1CCC(F)(CNCCOc2ccccn2)CC1")
"58%"
>>> result_value("O=C(c1ccc(F)c(Cl)c1)N1CCC(F)(CNCCSc2ccccn2)CC1")
"73%"
>>> result_value("O=C(c1ccc(F)c(Cl)c1)N1CCC(F)(CNCCCc2ccccc2)CC1")
"74%"
>>> result_value("O=C(c1ccc(F)c(Cl)c1)N1CCC(F)(CNCCNc2ccccc2)CC1")
"65%"
>>> result_value("O=C(c1ccc(F)c(Cl)c1)N1CCC(F)(CNCCNc2ccccn2)CC1")
"52%"

Where do the numbers come from? From ChEMBL document CHEMBL4706479.
